These entries and their values trace back to paper PMC10671498.

System: SK-OV-3 cells
Experiment: SRB cell proliferation assay, SK-OV-3
Assay type: cell-based, human
Conditions: Homo sapiens, SK-OV-3, 120 h
pIC50: −log10 of the molar value.
The entries below come with measured pIC50 values attached.
quantity_measured: pIC50

molecule	quantity_measured	measured_value
C#CC(=O)O[C@H]1CC[C@@]2(C)C(CC[C@]3(C)C2CCC2C4[C@H](C(=C)C)CC[C@]4(COP(=O)(OCC)OCC)CC[C@]23C)C1(C)C (stereo partly drawn)	pIC50	5.88
C#CC(=O)OC[C@]12CC[C@@H](C(=C)COP(=O)(OCC)OCC)C1C1CCC3[C@@]4(C)CC[C@H](O)C(C)(C)C4CC[C@@]3(C)[C@]1(C)CC2 (stereo partly drawn)	pIC50	6.54
C#CC(=O)OC[C@]12CC[C@@H](C(=C)C)C1C1CCC3[C@@]4(C)CC[C@H](OP(=O)(OCC)OCC)C(C)(C)C4CC[C@@]3(C)[C@]1(C)CC2 (stereo partly drawn)	pIC50	6.47
